This collection of values is drawn from patent US20260183302A1.

- System: Human B Lymphocyte cell line, SU-DHL-8
- method description: Relative cell viability, SU-DHL-8 (CCK-8)
- Type: cell-based
- condition label: SU-DHL-8, 10 μM, 48 hours, untreated (DMSO) = 100%
outcome measure: Relative cell viability (%)
Could you write the number and then its unit?

>>> result("Nc1ncccc1C(=O)NCCCCCCCCCCCCN1CCC(F)C1 (stereo not drawn)")
"1.04%"
>>> result("Cc1ccc(OC2CCN(CCCCCCCCCCCCNC(=O)c3cccnc3N)CC2)cc1")
"1.98%"
>>> result("Cc1ccc(C2CCN(CCCCCCCCCCCCNC(=O)c3cccnc3N)CC2)cc1")
"4.92%"
>>> result("Nc1ncccc1C(=O)NCCCCCCCCCCCCN1CCS(=O)(=O)CC1")
"1.26%"
>>> result("Nc1ncccc1C(=O)NCCCCCCCCCCCCN1CCC(Oc2ccncc2)CC1")
"3.30%"
>>> result("CC1CCN(CCCCCCCCCCCCNC(=O)c2cccnc2N)C1 (stereo not drawn)")
"1.65%"

Dear reader, for each entry below, please note its Relative cell viability (%).
1. Cl.O=C(NCCCCCCCCCCCCN1CCNCC1)c1ccc(-c2ccccc2)o1
2. CC1CN(C)C(CCCCCCCCCCCCNc2ccc3cncnc3n2)N1 (stereo not drawn)
3. CC(C)(C)OC(=O)N[C@H]1CCN(CCCCCCCCCCCCNC(=O)c2cccnc2N)C1

result:
["5.94%", "11.93%", "8.02%"]
